target: CYP3A4 (Homo sapiens); construct: purchased BD Bioscience (Woburn, MA); host or cells: baculovirus-infected insect cells (microsomes, supersomes); experiment: Fluorometric HTS enzyme assay, recombinant CYP3A4 (BFC substrate); assay type: biochemical; settings: recombinant CYP3A4, pH 7.4, probe BFC, at 1 mM
Sequence (P08684 whole entry): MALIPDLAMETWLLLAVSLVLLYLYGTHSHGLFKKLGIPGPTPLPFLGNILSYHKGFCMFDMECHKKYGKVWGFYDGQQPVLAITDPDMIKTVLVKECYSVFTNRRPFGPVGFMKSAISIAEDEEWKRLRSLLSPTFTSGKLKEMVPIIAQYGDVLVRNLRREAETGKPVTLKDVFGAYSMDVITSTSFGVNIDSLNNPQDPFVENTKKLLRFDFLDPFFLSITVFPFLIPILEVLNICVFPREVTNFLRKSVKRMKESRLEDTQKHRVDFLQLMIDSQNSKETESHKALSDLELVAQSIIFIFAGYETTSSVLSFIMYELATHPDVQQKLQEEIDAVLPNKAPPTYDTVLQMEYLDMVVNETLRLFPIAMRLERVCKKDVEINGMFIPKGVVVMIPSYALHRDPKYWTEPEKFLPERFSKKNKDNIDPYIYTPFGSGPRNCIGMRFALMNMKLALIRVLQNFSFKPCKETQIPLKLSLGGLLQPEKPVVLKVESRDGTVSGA
Quantity Name: inhibition at 30 min, 1 mM

Prompt: What value of measured inhibition at 30 min, 1 mM is listed for N#Cc1ccc(C(c2ccc(C#N)cc2)n2cncn2)cc1 ?
Completion: < 10%

====

Molecular target: CYP2A6 (Homo sapiens, UniProt P11509)
Sequence (P11509 1-494): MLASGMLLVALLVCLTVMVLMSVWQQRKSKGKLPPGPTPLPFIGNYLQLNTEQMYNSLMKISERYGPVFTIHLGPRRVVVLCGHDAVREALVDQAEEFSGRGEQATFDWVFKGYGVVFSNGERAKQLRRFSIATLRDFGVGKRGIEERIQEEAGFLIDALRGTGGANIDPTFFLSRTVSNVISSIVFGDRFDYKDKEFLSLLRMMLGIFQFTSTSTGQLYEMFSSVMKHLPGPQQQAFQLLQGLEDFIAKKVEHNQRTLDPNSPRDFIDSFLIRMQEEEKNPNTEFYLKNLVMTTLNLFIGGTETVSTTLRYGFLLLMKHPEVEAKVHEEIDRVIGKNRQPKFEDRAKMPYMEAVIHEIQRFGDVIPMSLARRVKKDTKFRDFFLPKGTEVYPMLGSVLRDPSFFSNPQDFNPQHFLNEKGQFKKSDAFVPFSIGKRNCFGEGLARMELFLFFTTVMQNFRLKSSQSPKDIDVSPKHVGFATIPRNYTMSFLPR
Experiment: Fluorometric HTS enzyme assay, recombinant CYP2A6 (coumarin substrate)
Conditions: ±SEM, 3 replicate assays; 3 μM coumarin
Quantity Name: pIC50
Please report pIC50 as the negative decimal logarithm of the molar concentration, giving only the number.

Prompt: Dear colleague, I am looking for the recorded pIC50 of the following compound: N#Cc1ccc(C(c2ccc(C#N)cc2)n2cncn2)cc1
Completion: 3.97
